Dear all, this message contains MIC results, target or system Staphylococcus epidermidis KCTC 1917.
Please reply with the bare figure in µM and do not write the unit itself.

Before answering, review these 3 worked examples.
compound	MIC [µM]
CC(C)C[C@H](NC(=O)[C@H](Cc1c[nH]c2ccccc12)NC(=O)[C@H](CCCCN)NC(=O)[C@H](CCCCN)NC(=O)[C@H](CC(C)C)NC(=O)[C@H](Cc1c[nH]c2ccccc12)NC(=O)[C@H](CCCCN)NC(=O)[C@H](CCCCN)NC(=O)[C@H](CC(C)C)NC(=O)[C@H](Cc1c[nH]c2ccccc12)NC(=O)[C@@H](N)CCCCN)C(=O)N[C@@H](CCCCN)C(N)=O [KWLKKWLKKWLK]	1
CC(C)C[C@H](NC(=O)[C@H](CC(C)C)NC(=O)[C@H](CCCCN)NC(=O)[C@H](CC(C)C)NC(=O)[C@H](CC(C)C)NC(=O)[C@H](CCCCN)NC(=O)[C@H](CCCCN)NC(=O)[C@H](CC(C)C)NC(=O)[C@H](CC(C)C)NC(=O)[C@H](CCCCN)NC(=O)[C@H](CCCCN)NC(=O)[C@H](Cc1c[nH]c2ccccc12)NC(=O)[C@@H](N)CCCCN)C(N)=O [KWKKLLKKLLKLL]	4
CC[C@H](C)[C@H](NC(=O)[C@H](CCCN=C(N)N)NC(=O)CN)C(=O)N[C@@H](CCCCN)C(=O)N[C@@H](CCCN=C(N)N)C(=O)N[C@H](C(=O)N[C@@H](CCCN=C(N)N)C(=O)N[C@@H](CCCCN)C(=O)N[C@@H](CCCCN)C(=O)N[C@H](C(=O)N[C@@H](CCCCN)C(=O)N[C@@H](CCCCN)C(=O)N[C@@H](CC(C)C)C(=O)N[C@H](C(=O)N[C@@H](CCCCN)C(=O)N[C@@H](CCCCN)C(=O)N[C@@H](CC(C)C)C(=O)N[C@@H](CO)C(N)=O)[C@@H](C)CC)[C@@H](C)CC)[C@@H](C)CC [GRIKRIRKKIKKLIKKLS]	8

Here is the next item to consider.
Q: Lab request: please report MIC under test system Staphylococcus epidermidis KCTC 1917 for CC[C@H](C)[C@H](NC(=O)[C@H](CCCN=C(N)N)NC(=O)[C@H](CCCN=C(N)N)NC(=O)[C@@H](NC(=O)[C@@H](NC(=O)[C@H](CCCN=C(N)N)NC(=O)[C@H](CCCCN)NC(=O)[C@@H](N)Cc1c[nH]c2ccccc12)[C@@H](C)CC)C(C)C)C(=O)N[C@@H](Cc1c[nH]c2ccccc12)C(=O)N[C@@H](CCCN=C(N)N)C(=O)N[C@@H](Cc1c[nH]c2ccccc12)C(=O)N[C@@H](CC(C)C)C(=O)N[C@@H](CCCN=C(N)N)C(N)=O [WKRIVRRIWRWLR]
A: 8

====

# Tested on: Enterococcus faecalis ATCC 29212
measure: MIC (µM)
Please reply with the bare figure in µM and do not write the unit itself.

Before answering, review these 2 worked examples.
givenSmiles	assayedTarget	measure	recordedNumber
CC(C)C[C@H](NC(=O)[C@H](CCCCN)NC(=O)[C@H](CCCCN)NC(=O)[C@H](Cc1ccccc1)NC(=O)[C@H](CC(C)C)NC(=O)[C@@H](N)CCCCN)C(=O)N[C@@H](Cc1ccccc1)C(=O)N[C@@H](CCCCN)C(N)=O	Enterococcus faecalis ATCC 29212	MIC	15.2
CC[C@H](C)[C@H](NC(=O)[C@H](CCCN=C(N)N)NC(=O)CNC(=O)[C@H](CC(C)C)NC(=O)[C@H](Cc1ccccc1)NC(=O)[C@H](CCCN=C(N)N)NC(=O)[C@H](CO)NC(=O)[C@H](Cc1ccccc1)NC(=O)[C@H](Cc1c[nH]c2ccccc12)NC(=O)[C@H](CCCN=C(N)N)NC(=O)[C@@H](NC(=O)[C@@H](N)Cc1ccccc1)C(C)C)C(=O)N[C@@H](CC(C)C)C(N)=O	Enterococcus faecalis ATCC 29212	MIC	24

Q: MIC lookup needed for CC[C@H](C)[C@H](NC(=O)[C@H](C)NC(=O)[C@H](CO)NC(=O)[C@@H](NC(=O)[C@H](C)NC(=O)[C@@H](NC(=O)[C@@H]1CCCN1C(=O)[C@@H](NC(=O)[C@H](CCSC)NC(=O)CNC(=O)[C@H](CC(C)C)NC(=O)[C@@H](N)CC(C)C)[C@@H](C)CC)C(C)C)[C@@H](C)CC)C(=O)N[C@@H](CO)C(=O)N[C@@H](C)C(=O)N[C@@H](CC(C)C)C(=O)N[C@@H](CO)C(=O)N[C@@H](CCCCN)C(=O)N[C@@H](CC(C)C)C(N)=O , thanks.
A: 100

Q: Same lookup for CC[C@H](C)[C@H](NC(=O)[C@H](CCCCN)NC(=O)[C@H](CCCCN)NC(=O)[C@H](C)NC(=O)[C@H](CC(C)C)NC(=O)[C@H](CC(N)=O)NC(=O)[C@@H](NC(=O)[C@H](CC(C)C)NC(=O)[C@@H](NC(=O)CNC(=O)[C@H](CC(C)C)NC(=O)[C@H](Cc1ccccc1)NC(=O)[C@@H](N)Cc1cnc[nH]1)[C@@H](C)O)C(C)C)C(=O)N[C@@H](CC(C)C)C(N)=O , please.
A: 16

Q: Same lookup for CC[C@H](C)[C@H](NC(=O)[C@H](CCCN=C(N)N)NC(=O)CNC(=O)[C@H](CC(C)C)NC(=O)[C@H](Cc1ccccc1)NC(=O)[C@H](CCCN=C(N)N)NC(=O)[C@H](CO)NC(=O)[C@H](Cc1ccccc1)NC(=O)[C@H](Cc1c[nH]c2ccccc12)NC(=O)[C@H](CCC(N)=O)NC(=O)[C@@H](NC(=O)[C@@H](N)Cc1ccccc1)C(C)C)C(=O)N[C@@H](CC(C)C)C(N)=O , please.
A: 12

====

# Tested on: Bacillus subtilis ATCC 23857
measure: MIC (µM)
Please reply with the bare figure in µM and do not write the unit itself.

Q: MIC lookup needed for CC[C@H](C)[C@H](NC(=O)[C@H](CCCCN)NC(=O)[C@H](CCCCN)NC(=O)[C@H](C)NC(=O)[C@@H](NC(=O)[C@H](C)NC(=O)[C@H](CC(C)C)NC(=O)[C@H](CC(C)C)NC(=O)[C@H](CCCCN)NC(=O)[C@H](CCCCN)NC(=O)[C@H](CC(C)C)NC(=O)[C@H](CC(N)=O)NC(=O)CN)C(C)C)C(=O)N[C@@H](CC(C)C)C(N)=O , thanks.
A: 4

====

Dear all, this message contains MIC results, target or system Escherichia coli ATCC 25922.
Please reply with the bare figure in µM and do not write the unit itself.

givenSmiles	assayedTarget	recordedNumber
CC(=O)N[C@@H](Cc1ccccc1)C(=O)N[C@@H](CCCCN)C(=O)N[C@@H](CC(C)C)C(=O)N[C@@H](CCCCN)C(=O)N[C@@H](CC(C)C)C(=O)N[C@@H](CCCCN)C(=O)N[C@@H](Cc1ccccc1)C(=O)N[C@@H](CO)C(=O)N[C@@H](CC(N)=O)C(=O)N[C@@H](CCCCN)C(=O)N[C@@H](CC(C)C)C(=O)N[C@@H](CCCCN)C(=O)N[C@@H](Cc1c[nH]c2ccccc12)C(=O)N[C@@H](CCCCN)C(=O)N[C@@H](Cc1c[nH]c2ccccc12)C(N)=O	Escherichia coli ATCC 25922	12.5

Here is the next item to consider.
Q: MIC lookup needed for CC[C@H](C)[C@H](NC(=O)CN)C(=O)N[C@@H](Cc1ccccc1)C(=O)NCC(=O)N[C@@H](CCCCN)C(=O)N[C@H](C(=O)N[C@@H](CC(C)C)C(=O)NCC(=O)N[C@H](C(=O)NCC(=O)N[C@@H](CCCCN)C(=O)N[C@@H](CCCCN)C(=O)N[C@H](C(=O)N[C@@H](CC(C)C)C(=O)N[C@H]1CSSC[C@@H](C(=O)O)NC(=O)[C@H](CCSC)NC(=O)CNC(=O)[C@H](CO)NC(=O)[C@H](CC(C)C)NC(=O)CNC1=O)C(C)C)C(C)C)[C@@H](C)CC , thanks.
A: 15.4

====

Dear all, this message contains MIC results, target or system Klebsiella pneumoniae ATCC 700603.

molecule	result
CC(C)C[C@H](NC(=O)[C@H](C)NC(=O)[C@H](CCCCN)NC(=O)[C@H](CC(C)C)NC(=O)[C@H](CC(C)C)NC(=O)[C@H](CCCCN)NC(=O)[C@H](CCCCN)NC(=O)[C@H](CC(C)C)NC(=O)[C@H](CC(C)C)NC(=O)[C@H](CCCCN)NC(=O)[C@H](CC(C)C)NC(=O)[C@H](CC(C)C)NC(=O)[C@@H](N)CCCCN)C(=O)NCC(N)=O [KLLKLLKKLLKALG]	> 20 µM

Q: MIC lookup needed for CC(C)C[C@H](NC(=O)[C@H](C)NC(=O)CNC(=O)[C@@H](NC(=O)[C@@H](NC(=O)[C@H](CCCCN)NC(=O)[C@H](CCCCN)NC(=O)[C@@H](NC(=O)[C@H](CC(C)C)NC(=O)[C@H](CCCCN)NC(=O)[C@H](CC(C)C)NC(=O)[C@H](CC(C)C)NC(=O)[C@@H](N)CCCCN)C(C)C)C(C)C)C(C)C)C(=O)NCC(N)=O [KLLKLVKKVVGALG] , thanks.
A: > 22 µM

Q: Same lookup for CC[C@H](C)[C@H](NC(=O)[C@H](CCCCN)NC(=O)[C@H](CCCCN)NC(=O)[C@H](C)NC(=O)[C@H](C)NC(=O)[C@H](C)NC(=O)[C@H](CC(C)C)NC(=O)[C@H](CC(C)C)NC(=O)[C@H](C)NC(=O)[C@H](CCCCN)NC(=O)[C@H](CC(C)C)NC(=O)[C@H](CC(N)=O)NC(=O)[C@@H](N)CC(C)C)C(=O)N[C@@H](CC(C)C)C(N)=O [LNLKALLAAAKKIL] , please.
A: 16 µM
